- Tested on: Raji
- ASSAY_NAME: Cytotoxicity against Homo sapiens (human) Raji cells after 96 hr by MTT assay
- Format: functional, cell-based
Documented log10 IC50 across a set of compounds
# values: log10(IC50), units µM

// solved cases for log10 IC50 follow
O=C1CCCC2=C1C(c1ccccc1[N+](=O)[O-])c1c(c3ccccc3oc1=O)O2 (stereo unspecified); 1.74
O=C1CCCC2=C1C(c1cccc(Br)c1)c1c(c3ccccc3oc1=O)O2 (stereo unspecified); 1.69
Cc1cccc(C2C3=C(CCCC3=O)Oc3c2c(=O)oc2ccccc32)c1 (stereo unspecified); 1.86
Cc1ccc(C2C3=C(CCCC3=O)Oc3c2c(=O)oc2ccccc32)cc1 (stereo unspecified); 1.90

Challenge: Param item = Cc1ccccc1C1C2=C(CCCC2=O)Oc2c1c(=O)oc1ccccc21 (stereo unspecified) ; retrieve measured log10 IC50.
Response given: 1.90

Challenge: Next compound: "COc1cccc2c1C(=O)c1c(O)c3c(c(O)c1C2=O)C[C@@](O)(C(=O)CO)C[C@@H]3O[C@H]1C[C@H](N)[C@H](O)[C@H](C)O1"
Response given: -1.41

---

- System: Raji
- ASSAY_NAME: Cytotoxicity against Homo sapiens (human) Raji cells after 96 hr by MTT assay
- Format: functional, cell-based
QUANTITY_KIND: IC50

Would you please look over these solved cases?
O=C1CCCC2=C1C(c1ccc([N+](=O)[O-])cc1)c1c(c3ccccc3oc1=O)O2 (stereo not given); > 100 µM
O=C1CCCC2=C1C(c1cccc(Cl)c1)c1c(c3ccccc3oc1=O)O2 (stereo not given); > 50 µM
O=C1CCCC2=C1C(c1ccc(Cl)cc1)c1c(c3ccccc3oc1=O)O2 (stereo not given); > 100 µM
O=C1CCCC2=C1C(c1ccccc1Cl)c1c(c3ccccc3oc1=O)O2 (stereo not given); > 25 µM

Turning to the following compound.
Challenge: // query IC50 value for entry O=C1CCCC2=C1C(c1ccccc1Br)c1c(c3ccccc3oc1=O)O2 (stereo not given)
Response given: > 100 µM
